system: S. enterica typhimurium tolC KO; experiment: growth AUC normalised to DMSO control (median) (fraction of control); higher = less growth inhibition, active = hit call of the paper; conditions: 20 µM;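 active = normalised median growth AUC below 0.1 of DMSO control; inactive = AUC 0.1 or higher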;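 also: active when median AUC fell below 0.1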
Where a name gives a salt, the structure may show the parent alone.
Entry note: the call must match one of active, inactive

molecule	class_label
CCCOc1cc(N)ccc1C(=O)OCCN(CC)CC [Propoxycaine hydrochloride]	inactive

Hi team, can someone confirm the assay call for `Nc1ncnc2c1ncn2[C@@H]1O[C@H](CO)[C@@H](O)[C@@H]1O` ? inactive

Hi team, can someone confirm the assay call for Cn1cc([S+](C)[O-])c(=O)c2ccc(F)cc21 (centres undefined) ? inactive

Hi team, can someone confirm the assay call for CCOC(=O)OC(C)OC(=O)[C@@H]1N2C(=O)[C@@H](NC(=O)[C@H](N)c3ccccc3)[C@H]2SC1(C)C (some centres undefined) [Bacampicillin hydrochloride] ? active

###

tested on: S. enterica typhimurium WT; experiment: growth AUC normalised to DMSO control (median) (fraction of control); higher = less growth inhibition, active = hit call of the paper; details: 20 µM
measured_endpoint: growth AUC normalised to DMSO control
Write no unit; give the number alone.

Field growth AUC normalised to DMSO control (entry CCN1CCN(Cc2ccc(Nc3ncc(F)c(-c4cc(F)c5nc(C)n(C(C)C)c5c4)n3)nc2)CC1 [Abemaciclib] ) reads 1

Field growth AUC normalised to DMSO control (entry CC[C@H](C)[C@H](N)C1=N[C@H](C(=O)N[C@@H](CC(C)C)C(=O)N[C@H](CCC(=O)O)C(=O)N[C@H](C(=O)N[C@H]2CCCCNC(=O)[C@H](CC(N)=O)NC(=O)[C@@H](CC(=O)O)NC(=O)[C@H](Cc3cnc[nH]3)NC(=O)[C@@H](Cc3ccccc3)NC(=O)[C@H]([C@@H](C)CC)NC(=O)[C@@H](CCCN)NC2=O)[C@@H](C)CC)CS1 [Bacitracin] ) reads 1.01

###

test system: S. enterica typhimurium WT; test: growth AUC normalised to DMSO control (median) (fraction of control); higher = less growth inhibition, active = hit call of the paper; conditions: 20 µM
Counter-ions that a name gives are not always drawn.
measured_endpoint: growth AUC normalised to DMSO control
Write no unit; give the number alone.

The following compounds have reported results that may help.
compound	assay_result
NS(=O)(=O)Cc1noc2ccccc12 [Zonisamide]	0.998
C[C@H]1O[C@H](O[C@H]2[C@H](O)[C@@H](O)[C@@H](O[C@@H]([C@H](O)[C@@H](O)C=O)[C@H](O)CO)O[C@@H]2CO)[C@H](O)[C@@H](O)[C@@H]1N[C@H]1C=C(CO)[C@@H](O)[C@H](O)[C@H]1O [Acarbose]	1.03
Cc1nc2ccccc2n1Cc1ccc(Cl)cc1 [Chlormidazole]	0.951
NC[C@H]1O[C@H](O[C@H]2[C@H](O[C@@H]3O[C@H](CO)[C@@H](O)[C@H]3O)[C@@H](O)[C@H](N)C[C@@H]2N)[C@H](N)[C@@H](O)[C@@H]1O [Ribostamycin sulfate salt]	0.98
COc1ccc(-c2cc(=S)ss2)cc1 [Anethole-trithione]	0.985

Field growth AUC normalised to DMSO control (entry NCC[C@H](O)C(=O)N[C@@H]1C[C@H](N)[C@@H](O[C@H]2O[C@H](CN)[C@@H](O)[C@H](O)[C@H]2O)[C@H](O)[C@H]1O[C@H]1O[C@H](CO)[C@@H](O)[C@H](N)[C@H]1O [Amikacin hydrate] ) reads 1

Field growth AUC normalised to DMSO control (entry COc1cc(/C=C/C(=O)N2CCN(CC(=O)N3CCCC3)CC2)cc(OC)c1OC [Cinepazide maleate] ) reads 1.01

Field growth AUC normalised to DMSO control (entry Cc1ncc([N+](=O)[O-])n1CCO [Metronidazole] ) reads 1.04
